Each recorded value in this set is attributed to the supplement of paper PMC3545927.

# studySystem: furin, P09958;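 note: purified furin at 1:10 enzyme:substrate in 50 mM HEPES pH 7.5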
# Sequence (P09958 whole entry): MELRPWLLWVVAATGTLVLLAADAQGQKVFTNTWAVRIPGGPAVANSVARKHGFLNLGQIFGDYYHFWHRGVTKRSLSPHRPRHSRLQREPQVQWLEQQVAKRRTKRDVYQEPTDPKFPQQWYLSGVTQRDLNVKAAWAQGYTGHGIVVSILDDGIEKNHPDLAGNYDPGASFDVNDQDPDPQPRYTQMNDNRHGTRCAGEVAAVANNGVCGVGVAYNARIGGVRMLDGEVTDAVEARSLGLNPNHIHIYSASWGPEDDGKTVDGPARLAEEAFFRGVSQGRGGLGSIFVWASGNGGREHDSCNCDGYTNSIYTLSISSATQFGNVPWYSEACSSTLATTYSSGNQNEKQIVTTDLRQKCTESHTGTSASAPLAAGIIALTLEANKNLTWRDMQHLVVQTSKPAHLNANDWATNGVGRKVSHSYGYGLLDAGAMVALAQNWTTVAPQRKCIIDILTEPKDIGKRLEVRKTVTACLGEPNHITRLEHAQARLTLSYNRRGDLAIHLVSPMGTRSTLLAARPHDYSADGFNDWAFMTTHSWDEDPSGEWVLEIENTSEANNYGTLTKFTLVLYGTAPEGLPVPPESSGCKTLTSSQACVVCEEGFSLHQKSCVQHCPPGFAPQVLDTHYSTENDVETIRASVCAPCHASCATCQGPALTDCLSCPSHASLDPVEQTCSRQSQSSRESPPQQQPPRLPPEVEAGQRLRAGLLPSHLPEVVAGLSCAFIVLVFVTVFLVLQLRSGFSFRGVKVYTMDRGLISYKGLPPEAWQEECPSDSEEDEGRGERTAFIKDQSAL
# assay: furin cleavage Z-score vs untreated control; higher = more cleavage, active = 3.5 or more, inactive = 1 or less, 8 variable residues between constant flanks
# conditionSummary: 30 min
The other results are listed elsewhere or left out. No count for the full screen is at hand.
Everything with furin cleavage Z-score lower than -0.6 is condition not met; everything else, including exactly -0.6, is condition met.

Answered examples (8):
In [3]: df
Out[3]:
                      seqstring         classlabel
0    CAASLAGTHGAGNASASA [HC539]      condition met
1  CARFFRSACSAGNASASA [FS-1820]  condition not met
2    CAKAVDFIPVAGNASASA [HC756]  condition not met
3  CARFIRSVMSAGNASASA [FS-3246]      condition met
4  CARFLRSKTLAGNASASA [FS-2415]      condition met
5  CAREKRGNGWAGNASASA [FS-2254]      condition met
6  CARGARVVFKAGNASASA [FS-2930]      condition met
7   CAVNCCSMSYAGNASASA [HC2021]  condition not met

Ask: Is the recorded value of furin cleavage Z-score equal to or greater than -0.6 for this sequence? CADPNIRTGVAGNASASA [HC798]
Reply: condition met

Ask: Consider next the sequence CAHPVTKYIMAGNASASA [HC980] in the same way.
Reply: condition not met

Ask: Then what about the sequence CADNVTPIDTAGNASASA [HC1435] ?
Reply: condition not met

Ask: Next sequence: CASCTTPCSGAGNASASA [HC1957]
Reply: condition met

Ask: Proceed to CANFKRSVASAGNASASA [FS-1847]
Reply: condition met

Ask: Okay, and CARFSRTVQDAGNASASA [FS-2668] ?
Reply: condition met

Ask: Next: CARFVRSVMSAGNASASA [FS-3248]
Reply: condition met
